Here the recorded viability, T/C is given for each entry.
system: 885724-159-R-J1-PDC KRAS PDC multicell spheroid viability; assay: Anticancer human tumor 885724-159-R-J1-PDC patient-derived pancreatic adenocarcinoma cell line growth inhibition [KRAS2]; conditions: second compound 0.1 µM; first compound 0.00316 µM; stronger effect = lower value;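 note: spheroids exposed to agents for 7 days before readout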

Some compounds with known viability, T/C results, for comparison:
{"columns": ["compound", "target under test", "measurement label", "recorded value"],
 "data": [
  ["CC(C)n1nc(-c2ccc3oc(N)nc3c2)c2c(N)ncnc21 + COc1cc2nc(C)nc(NC(C)c3cc(N)cc(C(F)(F)F)c3)c2cc1OC1CCOC1", "885724-159-R-J1-PDC KRAS PDC multicell spheroid viability", "viability, T/C", "62.7%"],
  ["CC(=O)Nc1cccc(-n2c(=O)n(C3CC3)c(=O)c3c(Nc4ccc(I)cc4F)n(C)c(=O)c(C)c32)c1 + COc1cc2nc(C)nc(NC(C)c3cc(N)cc(C(F)(F)F)c3)c2cc1OC1CCOC1", "885724-159-R-J1-PDC KRAS PDC multicell spheroid viability", "viability, T/C", "32.7%"]
]}

Now let's try a different one.
For record CC(C)n1nc(-c2ccc3oc(N)nc3c2)c2c(N)ncnc21 + CNCc1ccccc1-c1csc(C(C)Nc2nc(C)nc3cc(OC)c(OC)cc23)c1 the listed viability, T/C is 73.6%
